- experimentalTarget: UniProtKB P34976
- Sequence (P34976 whole entry, looked up): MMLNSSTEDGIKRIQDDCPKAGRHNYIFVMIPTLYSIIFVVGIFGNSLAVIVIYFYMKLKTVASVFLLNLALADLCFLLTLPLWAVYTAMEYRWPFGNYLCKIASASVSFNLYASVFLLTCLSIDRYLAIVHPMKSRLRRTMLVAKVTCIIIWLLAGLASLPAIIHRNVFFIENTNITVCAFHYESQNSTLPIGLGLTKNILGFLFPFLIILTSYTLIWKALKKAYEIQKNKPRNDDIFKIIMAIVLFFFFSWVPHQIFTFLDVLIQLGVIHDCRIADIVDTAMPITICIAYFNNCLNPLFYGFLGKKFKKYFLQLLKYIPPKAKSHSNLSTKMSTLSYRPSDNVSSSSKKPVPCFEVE
- testName: Antagonism of angiotensin II induced contraction of isolated rabbit aorta
Decision: Kb beneath 0.3 nM gives Met; Kb meeting or exceeding 0.3 nM gives Not met.

CCCc1nc2cccc(C(=O)O)c2nc1Oc1ccc(-c2ccccc2-c2nn[nH]n2)cc1 Not met
CCCCc1c(Oc2ccc(-c3ccccc3-c3nn[nH]n3)cc2)nc2c(C(=O)O)c(N)ccc2[n+]1[O-] Met
CCCCc1c(Oc2ccc(-c3ccccc3-c3nn[nH]n3)cc2)nc2c(C(=O)O)c(OCC(F)(F)F)ccc2[n+]1[O-] Not met
CCCCc1nc2ccc(F)c(C(=O)O)c2nc1Oc1ccc(-c2ccccc2-c2nn[nH]n2)cc1 Not met
CCCCc1nc2ccc(OCC)c(C(=O)O)c2nc1Oc1ccc(-c2ccccc2-c2nn[nH]n2)cc1 Met
CCCCc1c(Oc2ccc(-c3ccccc3-c3nn[nH]n3)cc2)nc2c(C(=O)O)cccc2[n+]1[O-] Not met
CCCCOc1ccc2c(nc(Oc3ccc(-c4ccccc4-c4nn[nH]n4)cc3)c(CCCC)[n+]2[O-])c1C(=O)O Met

Note: attention shifts to another entry.
Exercise: Does the reported Kb of "CCCCc1nc2cccc(C(=O)O)c2nc1Oc1ccc(-c2ccccc2-c2nn[nH]n2)cc1" stay below 0.3 nM?
Solution: Not met
